Examples of compounds with documented growth follow.
- Test system: SF-295 CNS
- EXPERIMENT: NCI-60 one-dose screen, 48 h (100 = growth as untreated, 0 = no growth, -100 = all killed)
- ASSAY SETUP: 10 µM
About 83,000 compounds went through this panel and 20% of them were active in at least one assay; those are over-represented in the sample as a whole. Activity calls are given as the source filed them. Rule for the calls: active = growth percent below 10; inactive = the rest.

[[record]]
compound = "CN1CCN(c2ccc(Nc3nc(NCCCNC(=O)c4ccc(Cl)cc4)c4sccc4n3)cc2)CC1"
meas_value = "98% (inactive)"

[[record]]
compound = "CCOP(=O)(OCC)O[C@H]1CCC(=O)[C@@H]2[C@H]1[C@H]1C[C@@H]3[C@@]4(C)CCCC(C)(C(=O)OC)[C@@H]4CC[C@@]23C=C1C(C)C (stereo partly drawn)"
meas_value = "69.1% (inactive)"

[[record]]
compound = "COC(=O)C[C@](O)(CCCC(C)(C)O)C(=O)O[C@H]1C(OC)=C[C@@]23CCC(=O)N2CCc2cc4c(cc2[C@@H]13)OCO4"
meas_value = "103% (inactive)"

[[record]]
compound = "COc1cc(/C=C/C(=O)c2cc(OC)c(OC)c(OC)c2)ccc1Oc1nc(Nc2ccc(F)cc2)nc(N(C)C)n1"
meas_value = "-55.2% (active)"

[[record]]
compound = "CN1C(=O)N(C)C2SC(N/N=C/c3ccccc3)=NC21 (stereo not drawn)"
meas_value = "66.6% (inactive)"


Data point: NS(=O)(=O)c1ccc(NC(=O)CSc2ccc(-c3ccccc3)nn2)c(Br)c1 ; growth = 69.9% (inactive)

Data point: O=C(Nc1cc(Cl)cc(Cl)c1)Nc1cc(Cl)cc(Cl)c1 ; growth = -47.9% (active)

Data point: O=C(NO)c1ccc(Cn2ccc3c(NCc4ccccc4)ncnc32)cc1 ; growth = -68.2% (active)

Data point: O/N=C(\CSc1nnc(-c2c[nH]c3ccccc23)n1-c1ccccc1)c1ccc(Br)cc1 ; growth = -15% (active)

Data point: COc1ccc2[nH]c(O)c(N=NC(=O)COc3ccc(NC(=O)Nc4ccc(Cl)c(Cl)c4)cc3)c2c1 ; growth = -45.5% (active)

Data point: COc1cnc2c(c1)C(=O)c1c-2n(CCCNCCO)c(=O)c2cc(OC)c(OC)cc12 ; growth = 6.94% (active)

Data point: O=C(Cn1nc(-c2ccccc2)ccc1=O)NN1C(=O)c2ccccc2C1=O ; growth = 96.5% (inactive)

Data point: COc1ccc(-c2nc(-c3ccccc3)c(-c3ccccc3)n2-c2ccc(S(=O)(=O)Nc3ncccn3)cc2)cc1OC ; growth = 46.5% (inactive)

Data point: O=C1Nc2cc(-c3ccc(NC(=O)c4cccc([N+](=O)[O-])c4)cc3)ccc2/C1=C/c1ccc[nH]1 ; growth = 83.5% (inactive)

Data point: CCCn1c(=O)c2[nH]c(-c3ccc(OCc4nc5ccc(C(F)(F)F)cc5[nH]4)cc3)nc2n(CCC)c1=O ; growth = 38.8% (inactive)

Data point: CN1CCN(c2ccc(C(=O)/C=C/c3cc(C(F)(F)F)ccc3Cl)cc2)CC1 ; growth = -89.3% (active)

Data point: C=C(C)[C@@H]1CC[C@]2(C)[C@H](CC=C3[C@@H]4CC(C)(C)CC[C@]4(C(=O)N4CCOCC4)CC[C@]32C)[C@@]1(C)CCCN ; growth = -87.4% (active)

Data point: Cc1ccc(-c2ccc(SCC(=O)Nc3ccc(Cl)c(C(F)(F)F)c3)nn2)cc1 ; growth = 13.2% (inactive)

* * *

Examples of compounds with documented growth follow.
- Tested on: UO-31 renal
- EXPERIMENT: NCI-60 one-dose screen, 48 h (100 = growth as untreated, 0 = no growth, -100 = all killed)
- ASSAY SETUP: 10 µM
The panel holds about 83,000 compounds, 20% with a hit somewhere; the sample as a whole holds those more often.
Provide only the numeric value, understood in %.

[[record]]
compound = "N#Cc1c(NC(=O)c2ccc(C(F)(F)F)cc2)sc2c1CCC(=O)C2"
meas_value = -99.9

[[record]]
compound = "CC1(C)CC[C@]23CC[C@]4(C)[C@H](CC[C@@H]5[C@@]6(C)CC[C@H](N)C(C)(C)[C@@H]6CC[C@]54C)[C@H]2[C@H]1OC3=O"
meas_value = -96.7

[[record]]
compound = "CC1(c2ccccc2)NC(=O)N(CC(=O)Nc2ccc(C(=O)/C=C/c3ccc(Cl)cc3)cc2)C1=O (centres undefined)"
meas_value = 22.7


Continue with the compound presented below.
Data point: N#Cc1c(NC(=O)c2ccc(C(F)(F)F)cc2C(F)(F)F)sc2c1CCC(=O)C2 ; growth = -99.7

* * *

- Tested on: LOX IMVI melanoma
- EXPERIMENT: NCI-60 one-dose screen, 48 h
- ASSAY SETUP: 10 µM
About 83,000 compounds went through this panel and 20% of them were active in at least one assay; those are over-represented in the sample as a whole. The source made the active and inactive calls. How the source made its calls: active means growth percent below 10; inactive means the rest.
Choose one outcome from this list and give only that: active, inactive

Example entries and their recorded answers appear below.
[[record]]
molecule = "O=C(CNc1nc(-c2ccccc2)cs1)Nc1cccc([N+](=O)[O-])c1"
label_class = "active"

[[record]]
molecule = "COc1cnc2c(c1)C(=O)c1c-2n(CCCNC(C)C)c(=O)c2cc(OC)c(OC)cc12"
label_class = "active"

[[record]]
molecule = "Cc1nn(-c2ccccc2)c2ncn(CC(=O)N/N=C/c3c[nH]c4ccccc34)c(=O)c12"
label_class = "inactive"

[[record]]
molecule = "CCN(CC)CCOc1ccc(C(=C(C)c2ccccc2)c2ccc(OCCN(CC)CC)cc2)cc1"
label_class = "active"

[[record]]
molecule = "O=C(CNc1nc(-c2ccccc2)cs1)Nc1ccc([N+](=O)[O-])cc1Cl"
label_class = "active"


Problem: In this assay, the call recorded for CN(C)c1ccc(/C=C/C(=O)c2ccc(NC(=O)CN3C(=O)NC(C)(c4ccccc4)C3=O)cc2)cc1 (stereo unspecified) was what?
Result: inactive

Problem: In this assay, the call recorded for CC(=C(c1ccc(OCCCN(C)C)cc1)c1ccc(OCCCN(C)C)cc1)c1ccccc1 was what?
Result: active

Problem: In this assay, the call recorded for O=C(c1ccc(O)cc1)C1[C@H](c2ccccc2Br)[C@@H](c2ccccc2)NC12C(=O)Nc1ccc(Cl)cc12 (stereo partly specified) was what?
Result: active

Problem: In this assay, the call recorded for CN1C(=O)N(C)C2SC(N/N=C/c3ccccc3)=NC21 (stereo unspecified) was what?
Result: inactive

* * *

- Test system: COLO 205 colon
- EXPERIMENT: NCI-60 one-dose screen, 48 h (100 = growth as untreated, 0 = no growth, -100 = all killed)
- ASSAY SETUP: 10 µM
The panel holds about 83,000 compounds, 20% with a hit somewhere; the sample as a whole holds those more often.
Would you mind labelling by growth? At or over 60% is fulfilled, under is not fulfilled.

[[record]]
compound = "COc1ccc(C(=O)/C=C/c2cc(C(F)(F)F)cc(C(F)(F)F)c2)cc1S(N)(=O)=O"
label_class = "not fulfilled"

[[record]]
compound = "Oc1ccc(/C=C2\\CCCc3cc4ccc(O)cc4[o+]c32)c(O)c1"
label_class = "not fulfilled"

[[record]]
compound = "C=C[C@H]1[C@H](O[C@@H]2OC(CO)[C@@H](O)[C@H](O)C2OC(=O)c2c(O)cc(O)cc2-c2cccc(O)c2)OC=C2C(=O)OCC[C@H]21 (some centres undefined)"
label_class = "fulfilled"

[[record]]
compound = "CN1C(=O)/C(=C/c2nccs2)SC1=S"
label_class = "fulfilled"

[[record]]
compound = "C=C[C@@]12CN3CC[C@]1(O)[C@@](C(=O)OC)(CO2)c1[nH]c2ccccc2c1C3"
label_class = "not fulfilled"


Problem: Check the entry Cc1cc(C)nc(NS(=O)(=O)c2ccc(N/C(N)=N/c3nccc(-c4ccccc4)n3)cc2)n1 : does growth equal or exceed 60%?
Result: fulfilled

Problem: Check the entry O=C(NC(=S)N1CCN(c2ncnc3c2cnn3-c2ccccc2)CC1)c1ccc(Cl)cc1 : does growth equal or exceed 60%?
Result: fulfilled

Problem: Check the entry COc1ccc(-c2ccc(/C=N/NC(=O)c3[nH]c4ccc(Br)cc4c3-c3ccccc3)o2)cc1 : does growth equal or exceed 60%?
Result: fulfilled

Problem: Check the entry Cc1ccc(C(C)C)cc1NC(=O)c1ccccc1O : does growth equal or exceed 60%?
Result: fulfilled

* * *

- System: SNB-75 CNS
- EXPERIMENT: NCI-60 one-dose screen, 48 h
- ASSAY SETUP: 10 µM
About 83,000 compounds went through this panel and 20% of them were active in at least one assay; those are over-represented in the sample as a whole. Activity calls are given as the source filed them. How the source made its calls: active means growth percent below 10; inactive means the rest.
Choose one outcome from this list and give only that: active, inactive

[[record]]
compound = "O=c1[nH]c2ccccc2cc1CSc1ccc(Nc2nccc(-c3ccc(Cl)cc3)n2)cc1"
label_class = "active"

[[record]]
compound = "Cc1ccc(-c2cc(-c3cc4ccccc4nc3Cl)[nH]c(=O)n2)cc1"
label_class = "active"

[[record]]
compound = "CN1CCCN(Cc2ccc(C(=O)Nc3cccc(Nc4ccc5c(O)cccc5n4)c3)cc2C(F)(F)F)CC1"
label_class = "inactive"

[[record]]
compound = "COc1ccc(CN2[C@H](C(=O)NCc3ccc(C(=O)NO)cc3)Cc3c([nH]c4ccccc34)[C@H]2C2CC2)cc1"
label_class = "inactive"

[[record]]
compound = "O=C(c1ccc(O)cc1)C1[C@H](c2ccccc2Br)[C@@H](c2ccccc2)NC12C(=O)Nc1ccc(Br)cc12 (stereo partly drawn)"
label_class = "inactive"

[[record]]
compound = "C/C(=C\\CC/C=C(\\C)CC/C=C(\\C)CC[C@@H](O)C(C)(C)O)CC/C=C(\\C)CC[C@@H](O)C(C)(C)O"
label_class = "inactive"


Problem: In this assay, the call recorded for COc1cc2c3c(n(CCCN4CCOCC4)c(=O)c2cc1OC)-c1nc2c(cc1C3=O)OCO2 was what?
Result: inactive

Problem: In this assay, the call recorded for COc1ccc(OC)c(-c2cc(-c3c[nH]c4ccccc34)nc(N)c2C#N)c1 was what?
Result: active

Problem: In this assay, the call recorded for O=C(CSc1nnc(-c2ccc3nc(-c4ccccc4)[nH]c3c2)o1)Nc1ccc(Br)cc1 was what?
Result: inactive

Problem: In this assay, the call recorded for O=C(CNc1nc(-c2ccccc2)cs1)Nc1ccc(Br)cc1 was what?
Result: active

Problem: In this assay, the call recorded for COc1ccc(-c2cc(-c3cc(C(=O)c4ccccc4)n4ccc(C)cc34)nc(N)c2C#N)cc1 was what?
Result: inactive

Problem: In this assay, the call recorded for CCOC(=O)C1=C(N)N(c2ccc(C)cc2)C2=C(C(=O)CC(C)(C)C2)C1c1ccccc1OC (stereo not drawn) was what?
Result: inactive

Problem: In this assay, the call recorded for CCOC(=O)C1NN(c2ccc(S(N)(=O)=O)cc2)c2nc3nc(-c4cccs4)cc(-c4cccs4)c3c(=O)n21 (stereo not drawn) was what?
Result: inactive

Problem: In this assay, the call recorded for COc1ccc(-c2ccc(/C=N/NC(=O)c3[nH]c4ccc(Br)cc4c3-c3ccccc3)o2)cc1 was what?
Result: inactive

Problem: In this assay, the call recorded for COC1=C[C@@]23CCC(=O)N2CCc2cc4c(cc2[C@H]3[C@H]1OC(=O)C(C)(C)O)OCO4 was what?
Result: inactive

Problem: In this assay, the call recorded for CN(C)c1ccc(/C=C/c2nc3ccccc3c(=O)n2CC(=O)Nc2ccccc2)cc1 was what?
Result: inactive

Problem: In this assay, the call recorded for COc1ccc(NC(=O)CSc2nnc(-c3ccc4nc(-c5ccc(Cl)cc5)[nH]c4c3)o2)cc1 was what?
Result: inactive

Problem: In this assay, the call recorded for CC1=N/C(=C\c2ccc(N(C)C)cc2)C(=O)N1CCc1ccc(S(N)(=O)=O)cc1 was what?
Result: inactive

Reference for the values: PubChem BioAssay (NCI)
